target: hGPR40 (Homo sapiens, UniProt O14842); construct: 3xFLAG; experiment: FDSS-based intracellular calcium assay (Human GRP40 In Vitro assay); settings: cells expressing GPR40, intracellular Ca2+ response
Sequence (O14842 whole entry): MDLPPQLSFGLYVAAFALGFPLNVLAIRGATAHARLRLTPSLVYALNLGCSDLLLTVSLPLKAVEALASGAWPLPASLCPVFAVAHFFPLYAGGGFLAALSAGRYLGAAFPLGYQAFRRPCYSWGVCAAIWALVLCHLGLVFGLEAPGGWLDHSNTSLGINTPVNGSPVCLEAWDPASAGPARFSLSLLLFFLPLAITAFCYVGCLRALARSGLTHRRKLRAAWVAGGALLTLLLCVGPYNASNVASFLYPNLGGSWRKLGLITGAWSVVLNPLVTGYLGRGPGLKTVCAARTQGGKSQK
Counter-ions that a name gives are not always drawn.
Measured Parameter: EC50 (nM)

COc1ccc(F)c(-c2ccc(Cc3ccc(N4C[C@@H](c5ccccc5)C[C@@H]4CC(=O)O)cc3)c(C)c2)c1	130
COc1ccc(F)c(-c2ccc(COc3ccc(N4C[C@H](c5ccccc5)C[C@@H]4CC(=O)O)cc3)c(C)c2)c1 [Example 16, HCl]	1000

a = COc1ccc(F)c(-c2ccc(Cc3ccc(N4CC(c5cc(C)no5)CC4CC(=O)O)cc3)c(C)c2)c1 (single isomer, unassigned) [Example 9, Isomer 3, HCl]
b = COc1ccc(F)c(-c2ccc(Cc3ccc(N4C[C@H](N5CCCCC5)C[C@@H]4CC(=O)O)cc3)c(C)c2)c1 (single isomer, unassigned) [Example 13, Isomer 2]
c = COc1ccc(F)c(-c2ccc(Cc3ccc(N4CC(c5cc(C)no5)CC4CC(=O)O)cc3)c(C)c2)c1 (single isomer, unassigned) [Example 9, Isomer 1, HCl]
d = COc1ccc(F)c(-c2ccc(Cc3ccc(N4C[C@@H](N5CCCCC5)C[C@@H]4CC(=O)O)cc3)c(C)c2)c1 (single isomer, unassigned) [Example 13, Isomer 1]
Hello, I need these entries ordered by EC50, highest reading first. Thanks! Ranked list of labels, please, in the requested order.
d, b, a, c
(d: 6700 nM, b: 2800 nM, a: 1400 nM, c: 150 nM)

Entry source: patent US10301260B2
